The reported numbers originate from PubChem BioAssay (NCATS).

method: qHTS of pediatric cancer cell lines to identify multiple opportunities for drug repurposing: Primary screen for BT-12 cells (AID 1347101); also: nearly all actives have a fitted effect of over 25% in size
recorded-conditions: BT-12 viability, CellTiter-Glo luminescence, 48 h; series mostly up to 57.3 µM
Inconclusive results are not listed. Calls of active or inactive are those of the source. Calls follow the shape of the dose curve; as a rule, active = well fitted cell-killing curve with a large enough effect; inconclusive = small, poorly fitted or top-dose-only effect; inactive = flat fitted curve, though single readings scatter.
Thanks in advance; please answer with one of these: YES for active, NO for inactive

// query Tell me the recorded outcome of this test for NS(=O)(=O)c1cc(C(=O)NN2C[C@H]3[C@H]4CCC(C4)[C@H]3C2)ccc1Cl .
// result NO

// query Next: Cc1cccc(OCC(O)CNC(C)(C)C)c1C (stereo not given)
// result NO

// query Next: O=C(c1ccco1)N1CCNCC1
// result NO

// query Next: O=C(CCOCCOCCOCCOCCC(=O)Nc1c(I)cc(I)c(C(=O)O)c1I)Nc1c(I)cc(I)c(C(=O)O)c1I
// result NO

// query Next: CN1CC[C@H](c2c(O)cc(O)c3c(=O)cc(-c4ccccc4Cl)oc23)[C@H](O)C1
// result YES

----------
Tested on: JEG-3
method: Primary qHTS to identify gynecologic anti-cancer compounds using libraries of approved drugs and bioactive compounds (AID 1345084); also: nearly all actives have a fitted effect of over 55% in size
recorded-conditions: Gynecologic cancer cell panel viability, ATPlite luminescence, 48 h; series mostly up to 57.5 µM
Results filed as inconclusive are left out. The source made the active and inactive calls. The call rests on the fitted dose curve; in most records, active means well fitted cell-killing curve with a large enough effect; inconclusive means small, poorly fitted or top-dose-only effect, or effect the other way; inactive means flat fitted curve, though single readings scatter.
Thanks in advance; please answer with one of these: YES for active, NO for inactive

// query Tell me the recorded outcome of this test for CC(NCCC(c1ccccc1)c1ccccc1)c1ccccc1 (configuration not stated) .
// result NO

// query Next: O=C1NC2CCCCN2C12CCN(CCCN1c3ccccc3CCc3ccc(Cl)cc31)CC2 (configuration not stated)
// result NO

// query Next: COC(=O)c1c(Cl)c(Cl)c(C(=O)OC)c(Cl)c1Cl
// result NO

// query Next: Cc1oc(-c2ccccc2)nc1CCC(=O)c1ccc(CC2SC(=O)NC2=O)cc1 (configuration not stated)
// result NO

// query Next: Cc1ccc2c(Cl)cc(Cl)c(O)c2n1
// result NO

// query Next: O=C(Oc1ccccc1)c1cccc(C(=O)Oc2ccccc2)c1
// result NO

// query Next: COCCOCC(OC)OC
// result NO

// query Next: Nc1ccc2c(c1)CN1C(=O)c3ccccc3C1=N2
// result YES

// query Next: C[N+]1(C)CCC(OC(=O)C(O)(c2ccccc2)C2CCCC2)C1 (configuration not stated)
// result NO

// query Next: COC(=O)c1cc(S(N)(=O)=O)ccc1OC
// result NO

// query Next: CCOC(=O)Cn1cccc1-c1nc(-c2ccc(OC)cc2)c(-c2ccc(OC)cc2)s1
// result NO

// query Next: O=C1Nc2ccccc2C1(c1ccc(O)cc1)c1ccc(O)cc1
// result NO

----------
method: qHTS of pediatric cancer cell lines to identify multiple opportunities for drug repurposing: Primary screen for SK-N-MC cells (AID 1347093)
recorded-conditions: SK-N-MC viability, CellTiter-Glo luminescence, 48 h; series mostly up to 46 µM
Records with an inconclusive call do not appear. The source made the active and inactive calls. The call rests on the fitted dose curve; in most records, active means well fitted cell-killing curve with a large enough effect; inconclusive means small, poorly fitted or top-dose-only effect; inactive means no such curve, though single readings can be large or run the other way.
Thanks in advance; please answer with one of these: yes (1) (active), no (0) (inactive)

// query Tell me the recorded outcome of this test for CC(=O)OC[C@H]1O[C@@H](OC(C)=O)[C@H](OC(C)=O)[C@@H]1OC(C)=O .
// result no (0)

// query Next: CCN1CCCC1CN (stereo not drawn)
// result no (0)

// query Next: COC(=O)c1cc(Cl)c(NC(C)=O)cc1OC
// result no (0)

// query Next: C/C(=N/NC(=O)c1ccncc1)C(=O)O
// result no (0)

// query Next: CN1C(CSCC(F)(F)F)Nc2cc(Cl)c(S(N)(=O)=O)cc2S1(=O)=O (stereo not drawn)
// result no (0)

// query Next: COC(=O)c1c(Cl)c(Cl)c(C(=O)OC)c(Cl)c1Cl
// result no (0)

// query Next: CC(=O)O[C@@H]1CC2C3CCc4cc(OC(=O)c5ccccc5)ccc4C3CCC2(C)[C@H]1OC(C)=O (stereo partly drawn)
// result no (0)

// query Next: CCCCCCCCCCCCCC[N+](C)(C)C
// result yes (1)

// query Next: C[N+]1(C)CCC(OC(=O)C(O)(c2ccccc2)C2CCCC2)C1 (stereo not drawn)
// result no (0)

// query Next: CCc1cc(S(=O)(=O)O)c2cc(C(C)C)cccc1-2
// result no (0)

// query Next: COc1cc2c(cc1OC)CN(C(=O)[C@H](C)N[C@@H](CCc1ccccc1)C(=O)O)[C@H](C(=O)O)C2
// result no (0)

// query Next: O=P(O)(O)OCC(O)CO (stereo not drawn)
// result no (0)

// query Next: CC(C)(Oc1ccc(Cl)cc1)C(=O)OCCCOC(=O)C(C)(C)Oc1ccc(Cl)cc1
// result no (0)

// query Next: Brc1ccccc1-c1ccccc1
// result no (0)

// query Next: COc1cc(C(=O)OC(COCCC(C)C)CN2CCOCC2)cc(OC)c1OC (stereo not drawn)
// result no (0)

// query Next: CCN(CC)CC(=O)Nc1c(C)cccc1C(=O)OC
// result no (0)

// query Next: CN1CC[C@H](c2c(O)cc(O)c3c(=O)cc(-c4ccccc4Cl)oc23)[C@H](O)C1
// result yes (1)

// query Next: CCn1ccc(NS(=O)(=O)c2ccc(N)cc2)nc1=O
// result no (0)

// query Next: NC(=O)COCCN1CCN(C(c2ccccc2)c2ccc(Cl)cc2)CC1 (stereo not drawn)
// result no (0)

// query Next: O=C(OCC(COC(=O)c1cccnc1)(COC(=O)c1cccnc1)COC(=O)c1cccnc1)c1cccnc1
// result no (0)

// query Next: NS(=O)(=O)c1ccc(N2CCCCS2(=O)=O)cc1
// result no (0)

// query Next: Cc1ccc(/C=N/n2c(-c3ccccc3)csc2=S)cc1
// result no (0)

// query Next: Cc1nc2n(c(=O)c1CCN1CCC(C(=O)c3ccc(F)cc3)CC1)CCS2
// result no (0)

----------
measurement-target: Androgen receptor (Homo sapiens) (UniProt P10275)
Sequence (P10275 whole entry, looked up): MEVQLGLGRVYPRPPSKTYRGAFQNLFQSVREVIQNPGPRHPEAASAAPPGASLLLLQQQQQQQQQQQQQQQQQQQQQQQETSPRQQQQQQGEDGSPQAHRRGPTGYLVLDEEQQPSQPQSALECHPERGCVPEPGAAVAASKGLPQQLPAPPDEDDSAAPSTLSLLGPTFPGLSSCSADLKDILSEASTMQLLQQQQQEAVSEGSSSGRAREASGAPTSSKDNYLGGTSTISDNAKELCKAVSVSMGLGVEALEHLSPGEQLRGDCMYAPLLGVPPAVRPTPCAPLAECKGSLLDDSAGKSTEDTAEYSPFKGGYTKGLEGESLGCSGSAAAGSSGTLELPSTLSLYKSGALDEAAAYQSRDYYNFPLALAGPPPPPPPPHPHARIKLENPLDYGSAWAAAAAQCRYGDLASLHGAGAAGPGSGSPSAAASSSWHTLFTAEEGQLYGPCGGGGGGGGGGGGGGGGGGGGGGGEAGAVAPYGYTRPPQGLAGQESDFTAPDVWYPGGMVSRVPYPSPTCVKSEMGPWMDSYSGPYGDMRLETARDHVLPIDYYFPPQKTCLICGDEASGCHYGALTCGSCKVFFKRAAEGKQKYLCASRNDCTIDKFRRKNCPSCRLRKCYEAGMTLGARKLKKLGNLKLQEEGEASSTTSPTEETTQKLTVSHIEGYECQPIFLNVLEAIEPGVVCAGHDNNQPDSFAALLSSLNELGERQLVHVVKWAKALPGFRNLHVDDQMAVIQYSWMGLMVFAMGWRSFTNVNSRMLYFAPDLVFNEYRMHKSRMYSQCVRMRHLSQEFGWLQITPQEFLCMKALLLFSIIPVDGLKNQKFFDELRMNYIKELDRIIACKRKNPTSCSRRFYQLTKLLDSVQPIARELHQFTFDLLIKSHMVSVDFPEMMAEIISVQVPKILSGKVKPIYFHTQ
method: qHTS assay for small molecule agonists of androgen receptor signaling (AID 588515); also: % is scaled to controls: 0 for no effect and ±100 for the full control effect
recorded-conditions: AR-UAS-bla HEK293, beta-lactamase ratio, agonist 16 h; stronger effect = higher value
Inconclusive results are not listed.
endpoint: activation (%)
Please give a number only; it is taken to be in %.

// query Tell me the measured activation of CCCC(=O)c1cc(O)c(O)cc1O , please.
// result -9.57

// query Next: CCCCCCCCCCCC[N+](C)(C)Cc1ccccc1
// result -8.21

// query Next: OCc1c[nH]c2ccccc12
// result -13.7

// query Next: CCN(CC)CCOc1ccc(/C(=C(\Cl)c2ccccc2)c2ccccc2)cc1
// result -16

----------
method: Primary qHTS for inhibitors of nuclear receptor binding SET domain protein 2 (NSD2) in an RCH-ACV wild type WT cells (2C) (AID 1645877); also: nearly all actives have a fitted effect of over 70% in size
recorded-conditions: RCH-ACV (leukaemia line) NSD2 WT (2C) viability, CellTiter-Glo, 72 h; series mostly up to 44.9 µM
Records with an inconclusive call do not appear. The source made the active and inactive calls. The call rests on the fitted dose curve; in most records, active means well fitted inhibition curve with a large enough effect; inconclusive means small, poorly fitted or top-dose-only effect; inactive means no such curve, though single readings can be large or run the other way. Where a SMILES comes first, the peptide text is derived from it. [ ]: non-standard residue; d: D form. pGlu = O=C1CC[C@@H](C(=O)O)N1
Thanks in advance; please answer with one of these: active, inactive

// query Tell me the recorded outcome of this test for CCCC(CCC)(C(=O)OCC)C(=O)OCC .
// result inactive

// query Next: CCN(CC)C(=O)C1CN2CCc3cc(OC)c(OC)cc3C2CC1OC(C)=O (centres undefined)
// result inactive

// query Next: CCn1ccc(NS(=O)(=O)c2ccc(N)cc2)nc1=O
// result inactive

// query Next: C[C@@H]1C[C@H]2[C@@H]3CCC4=CC(=O)C=C[C@]4(C)[C@@]3(F)[C@@H](O)C[C@]2(C)[C@@]1(O)C(=O)COC(=O)c1ccncc1
// result inactive

// query Next: Cc1ccc(O)cc1
// result inactive

// query Next: CCN1CCN(c2cc(-c3ccc(F)cc3)c3c(n2)CCCCCC3)CC1
// result inactive

// query Next: O=C(O)Cn1cnnn1
// result inactive

// query Next: CC(C)C(C)(C)C(C)(C)C(C)(C)S
// result inactive

// query Next: CCCCCN(CCCOC)C(=O)C(CCC(=O)O)NC(=O)c1ccc(Cl)c(Cl)c1 (centres undefined)
// result inactive

// query Next: CC(=O)Nc1ccc(S(=O)(=O)Nc2cc(C)on2)cc1
// result inactive

// query Next: CCN(CC)CCN
// result inactive

// query Next: Oc1ccccc1-c1nnco1
// result inactive

// query Next: COc1ccc(-n2nc(CCC(=O)N(C)O)cc2-c2ccc(Cl)cc2)cc1
// result active

// query Next: CC(C)(Oc1ccc(Cl)cc1)C(=O)OCCCOC(=O)C(C)(C)Oc1ccc(Cl)cc1
// result inactive

// query Next: CN1CCN(N)CC1
// result inactive

// query Next: O=C(O)CCCC[P+](c1ccccc1)(c1ccccc1)c1ccccc1
// result inactive

// query Next: CC(=O)OC[C@H]1O[C@@H](OC(C)=O)[C@H](OC(C)=O)[C@@H]1OC(C)=O
// result inactive

// query Next: CCCOc1ccc2c(c1)CC[C@@H]1[C@@H]2CC[C@]2(C)C(OC)CC[C@@H]12 (some centres undefined)
// result inactive

// query Next: CCCCCC(=O)O[C@]1(C(C)=O)CC[C@H]2[C@@H]3CCC4=CC(=O)CC[C@]4(C)[C@H]3CC[C@@]21C
// result active

// query Next: CCS(=O)(=O)c1ccc(OC)c(C(=O)OC)c1
// result inactive

// query Next: Oc1ccc(CCNCCCCCCNCCc2ccccc2)cc1O
// result active

// query Next: CCCCN(CCN(CCCC)C(=O)N1CCOCC1)C(=O)N1CCOCC1
// result inactive

// query Next: CC(=O)OCC(=O)[C@@]1(O)CCC2C3CCC4=CC(=O)CC[C@]4(C)C3[C@@H](O)C[C@@]21C (some centres undefined)
// result active

// query Next: CC(NC(CCc1ccccc1)C(=O)O)C(=O)N1C(=O)N(C)CC1C(=O)O (centres undefined)
// result inactive

// query Next: O=C1[C@@H]2[C@H]3CC[C@H](C3)[C@@H]2C(=O)N1CCCCN1CCN(c2ncccn2)CC1
// result inactive

// query Next: CCOC(=O)c1cc(=O)c2c(OCC(COc3cccc4oc(C(=O)OCC)cc(=O)c34)OC(=O)[C@@H](N)CCCCN)cccc2o1
// result inactive

// query Next: CN(C)CCCOC1(Cc2ccccc2)CCCCCC1
// result inactive

// query Next: O=C1NCCN1CCN1CCC(c2cn(-c3ccc(F)cc3)c3ccc(Cl)cc23)CC1
// result active

// query Next: CCN1C(=O)c2ccccc2C1Nc1ccc(OCCN2CCCCC2)cc1 (centres undefined)
// result inactive

// query Next: Nc1c[n+](N2CCOCC2)no1
// result inactive

// query Next: OC[C@]1(O)OC[C@@H](O)[C@H](O)[C@@H]1O
// result inactive

// query Next: Cc1ccc2ccc(Cl)cc2n1
// result inactive

// query Next: N[C@@H](Cc1cc(I)c(O)c(I)c1)C(=O)O
// result inactive

// query Next: COc1ccc(/C(C)=C/C(=O)O)c(OC)c1
// result inactive

// query Next: COc1c(C)c2c(c(O)c1C/C=C(\C)CCC(=O)OCCN1CCOCC1)C(=O)OC2
// result active

// query Next: C1=CC2C3C=CC(C3)C2C1 (centres undefined)
// result inactive

// query Next: CCOC(=O)C(=O)CCCCCCl
// result inactive

// query Next: N#CC1(c2ccc(F)cc2)CCC(=O)CC1
// result inactive

// query Next: CCCCCCCCCCCCCCCCCCNC(=O)OC1CCN(C(=O)OC[C@H](COC(=O)N(Cc2cccc[n+]2CC)C(=O)c2ccccc2OC)OC)CC1
// result active

// query Next: CN(CC1(C)CCCO1)S(=O)(=O)c1ccc(Cl)c(S(N)(=O)=O)c1 (centres undefined)
// result inactive

// query Next: CN=C(N)NC(=O)Nc1c(C)cccc1C
// result inactive

// query Next: CCNC(=O)[C@@H]1CCCN1C(=O)[C@H](CCCN=C(N)N)NC(=O)[C@H](CC(C)C)NC(=O)CNC(=O)[C@H](Cc1ccc(O)cc1)NC(=O)[C@H](CO)NC(=O)[C@H](Cc1c[nH]c2ccccc12)NC(=O)[C@H](Cc1cnc[nH]1)NC(=O)[C@@H]1CCC(=O)N1 ([pGlu]HWSYGLRP-NHEt)
// result inactive

// query Next: O=C(O)C(=O)Nc1cccc(-c2nn[nH]n2)c1
// result inactive

// query Next: Fc1ccc(C(c2ccc(F)cc2)N2CCNCC2)cc1
// result inactive
